molecular target: STS (Homo sapiens, UniProt P08842); experiment: Plate assay, % inhibition; conditions: 1 μM; -ve % means stimulation
Sequence (P08842 22-583, species assumed): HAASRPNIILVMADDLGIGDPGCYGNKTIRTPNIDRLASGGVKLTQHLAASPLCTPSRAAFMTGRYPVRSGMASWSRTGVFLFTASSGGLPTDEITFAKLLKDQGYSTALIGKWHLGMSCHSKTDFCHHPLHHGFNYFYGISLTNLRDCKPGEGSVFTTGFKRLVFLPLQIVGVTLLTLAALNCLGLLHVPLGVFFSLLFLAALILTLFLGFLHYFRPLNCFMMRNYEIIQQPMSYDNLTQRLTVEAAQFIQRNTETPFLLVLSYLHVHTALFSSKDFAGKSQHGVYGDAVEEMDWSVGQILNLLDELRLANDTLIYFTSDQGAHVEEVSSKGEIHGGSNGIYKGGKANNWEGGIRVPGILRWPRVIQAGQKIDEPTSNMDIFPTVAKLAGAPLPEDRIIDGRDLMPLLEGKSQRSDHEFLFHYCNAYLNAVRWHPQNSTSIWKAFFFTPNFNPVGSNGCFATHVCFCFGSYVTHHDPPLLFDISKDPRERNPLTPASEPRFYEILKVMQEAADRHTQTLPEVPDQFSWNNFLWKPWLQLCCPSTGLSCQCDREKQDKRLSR
Known Plate assay % inhibition of a selection of compounds
Kindly answer with a numeric value in %, unit omitted.

- C[C@]12CCC3c4ccc(OS(N)(=O)=O)cc4CCC3C1CC[C@@H]2OS(=O)(=O)N(Cc1ccccc1)Cc1ccccc1 (some centres unmarked) [BLE99063]: 15
- CC(=O)NS(=O)(=O)O[C@H]1CCC2C3CCc4cc(O)ccc4C3CC[C@@]21C (some centres unmarked) [BLE99058]: 1
- C[C@]12CCC3c4ccc(OS(N)(=O)=O)cc4CCC3C1CC[C@H]2OS(=O)(=O)N(Cc1ccccc1)Cc1ccccc1 (some centres unmarked) [BLE99068]: −1
- C[C@]12CCC3c4ccc(O)cc4CCC3C1CC[C@H]2OS(=O)(=O)N(Cc1ccccc1)Cc1ccccc1 (some centres unmarked) [BLE99066]: 5
- CN(C)S(=O)(=O)OC1CCC2C3CCc4cc(OS(N)(=O)=O)ccc4C3CCC12C (centres unmarked) [BLE99069]: 10

Measured on STS (Homo sapiens, UniProt P08842), COc1cc2c(cc1OS(N)(=O)=O)CC[C@@H]1[C@@H]2CC[C@]2(C)C(=O)CC[C@@H]12 [Compound 2-MOEMATE, 2-methoxyoestrone-3-O-sulphamate, reference compound] has a documented Plate assay % inhibition of 42

Measured on STS (Homo sapiens, UniProt P08842), CC(=O)NS(=O)(=O)O[C@H]1CCC2C3CCc4cc(OS(N)(=O)=O)ccc4C3CC[C@@]21C (some centres unmarked) [BLE99065] has a documented Plate assay % inhibition of 5

Measured on STS (Homo sapiens, UniProt P08842), CN(C)S(=O)(=O)O[C@H]1CCC2C3CCc4cc(O)ccc4C3CC[C@@]21C (some centres unmarked) [BLE99067] has a documented Plate assay % inhibition of −1
